Parameter log10 IC50: see the listing below.
Target: hROMK (hKir1.1) (Homo sapiens, UniProt P48048)
Sequence (P48048 1-391): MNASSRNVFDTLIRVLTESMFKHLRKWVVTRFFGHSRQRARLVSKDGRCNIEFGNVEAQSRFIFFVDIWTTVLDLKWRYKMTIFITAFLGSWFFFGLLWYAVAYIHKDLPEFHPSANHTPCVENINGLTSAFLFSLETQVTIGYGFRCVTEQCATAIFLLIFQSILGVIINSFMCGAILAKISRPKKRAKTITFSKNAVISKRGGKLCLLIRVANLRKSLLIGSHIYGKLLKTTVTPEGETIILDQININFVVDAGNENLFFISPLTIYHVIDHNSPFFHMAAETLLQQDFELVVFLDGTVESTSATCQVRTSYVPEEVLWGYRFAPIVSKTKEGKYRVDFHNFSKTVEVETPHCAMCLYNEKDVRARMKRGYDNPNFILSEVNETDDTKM
Test: Thallium Flux Assay
Conditions: HEK293 cells stably expressing hROMK (hKir1.1)
Heads up: the numbers are on a log10 scale; they represent IC50 in nM.

Examples with answers:
I am curious: what log10 IC50 value has been reported for Cc1c([C@@H](O)CN2CC[C@H](NC(=O)c3ccc(C#N)cn3)[C@H](F)C2)ccc2c1COC2=O (single isomer, unassigned) ?
2.26

Okay, and Cc1c([C@@H](O)CN2CCC(NC(=O)c3ccc(-n4cnnn4)nc3)CC2)ccc2c1COC2=O ?
2.18

Next:
I am curious: what log10 IC50 value has been reported for Cc1c([C@@H](O)CN2CCC(C)(NC(=O)c3cnc(-n4cnnn4)cn3)CC2)ccc2c1COC2=O ?
1.90

Okay, and Cc1c([C@@H](O)CN2CC[C@H](NC(=O)c3ccc(-n4cnnn4)nc3)[C@H](F)C2)ccc2c1COC2=O (single isomer, unassigned) [50 B] ?
2.97

Okay, and Cc1c([C@@H](O)CN2CCC(C3(NC(=O)c4ccc(-n5cnnn5)nc4)CCC3)C2)ccc2c1COC2=O (single isomer, unassigned) [90 B] ?
2.45

Okay, and Cc1c([C@@H](O)CN2CCC(NC(=O)c3ccc(-n4cnnn4)nn3)CC2)ccc2c1COC2=O ?
2.04

Okay, and COc1cc(C(=O)NC2CCN(CC(O)c3ccc(F)c(C#N)c3C)CC2)ccc1C#N (stereo not shown) ?
1.85

====

target: hROMK (hKir1.1) (Homo sapiens, UniProt P48048); construct: expressed in transfected cells; experiment: Thallium Flux Assay; format: cell-based; conditions: HEK293 cells stably expressing hROMK (hKir1.1)
pIC50: −log10 of the molar value.
Assign TRUE whenever pIC50 does not fall below 7; assign FALSE whenever it does.

Example entries and their recorded answers appear below.
Is pIC50 for Cc1c([C@@H](O)CN2CCC(C)(NC(=O)c3ccc(-n4cnnn4)nn3)CC2)ccc2c1COC2=O [Example 71] at or above 7?
FALSE

Okay, and Cc1c([C@@H](O)CN2CCC(NC(=O)c3ccc(C#N)cc3)CC2)ccc2c1COC2=O [Example 27] ?
TRUE

Okay, and Cc1cc(C(=O)NC2CCN(C[C@H](O)c3ccc4c(c3C)COC4=O)CC2)ncc1C#N [Example 22] ?
TRUE

Okay, and COc1ccc(C(=O)NC2CCN(CCc3ccc4c(c3C)COC4=O)CC2)cc1C#N [Example 9] ?
TRUE

Next:
Is pIC50 for Cc1c([C@@H](O)CN2CCC(NC(=O)c3ccc4nonc4c3)CC2)ccc2c1COC2=O [Example 66] at or above 7?
FALSE

Okay, and Cc1c([C@@H](O)CN2CCC(NC(=O)c3ccc(C#N)cc3F)CC2)ccc2c1COC2=O [Example 45] ?
FALSE

Okay, and Cc1cc(C(=O)NCC2CCN(C[C@H](O)c3ccc4c(c3C)COC4=O)C2)ncc1-n1cnnn1 (stereo partly drawn) [Example 85] ?
FALSE

Okay, and CO[C@@H]1CN(C[C@H](O)c2ccc3c(c2C)COC3=O)CC[C@@H]1NC(=O)c1ccc(-n2cnnn2)nc1 (single isomer, unassigned) [54 A] ?
FALSE

FYI, the data here is from patent US9777002B2.
